Measured values drawn from ChEMBL document CHEMBL4627352 for this set.

system: Proteus vulgaris; test: Inhibition of DHPS in Proteus vulgaris assessed as antibacterial activity by measuring inhibition of bacterial growth incubated for 24 hrs by microbroth dilution method
reported-metric: log10 MIC (log10 of the value in µg/mL)

* C=CCN/C(SCC)=C(/C#N)C(=O)Nc1ccc(S(=O)(=O)Nc2onc(C)c2C)cc1 | 0.59
* CCN/C(S[C@@H]1O[C@H](COC(C)=O)[C@H](OC(C)=O)[C@H](OC(C)=O)[C@H]1OC(C)=O)=C(/C#N)C(=O)Nc1ccc(S(=O)(=O)Nc2onc(C)c2C)cc1 | 2.10
* CN/C(S)=C(/C#N)C(=O)Nc1ccc(S(=O)(=O)Nc2onc(C)c2C)cc1 | 0.89
* CCN/C(S[C@@H]1O[C@H](COC(C)=O)[C@@H](OC(C)=O)[C@H](OC(C)=O)[C@H]1OC(C)=O)=C(/C#N)C(=O)Nc1ccc(S(=O)(=O)Nc2onc(C)c2C)cc1 | 0.89
* C=CCN/C(S[C@@H]1O[C@H](COC(C)=O)[C@H](OC(C)=O)[C@H](OC(C)=O)[C@H]1OC(C)=O)=C(/C#N)C(=O)Nc1ccc(S(=O)(=O)Nc2onc(C)c2C)cc1 | 1.80
* CN/C(S[C@@H]1O[C@H](COC(C)=O)[C@@H](OC(C)=O)[C@H](OC(C)=O)[C@H]1OC(C)=O)=C(/C#N)C(=O)Nc1ccc(S(=O)(=O)Nc2onc(C)c2C)cc1 | 0.89
* CCS/C(NC)=C(\C#N)C(=O)Nc1ccc(S(=O)(=O)Nc2onc(C)c2C)cc1 | 1.49
* C=CCN/C(S)=C(/C#N)C(=O)Nc1ccc(S(=O)(=O)Nc2onc(C)c2C)cc1 | 0.59
* CCN/C(SCC)=C(/C#N)C(=O)Nc1ccc(S(=O)(=O)Nc2onc(C)c2C)cc1 | 0.59
